assay.info: Solubility test in water
Assay type: physicochemical
cond: water, 25 °C, thermodynamic from solid, 20 mg sample, 25° C. water bath, water added until completely dissolved (not more than 200 mL)

{"columns": ["compound", "solubility [µg/mL]"],
 "data": [
  ["CC#CC(=O)N1CCC[C@H]1c1nc(-c2ccc(C(=O)Nc3ccccn3)cc2)c2c(N)nccn12.O=C(O)/C=C/C(=O)O [ACP-196 hemifumarate Form 1]", 910],
  ["CC#CC(=O)N1CCC[C@H]1c1nc(-c2ccc(C(=O)Nc3ccccn3)cc2)c2c(N)nccn12.O=C(O)/C=C\\C(=O)O [ACP-196 maleate Form 1]", 1330]
]}
